// compounds with reported IC50 on Poly [ADP-ribose] polymerase 1 (Homo sapiens, UniProt P09874), multi-publication

mol_smiles=NC(=O)c1cccc2c(F)n(-c3ccc([C@@]4(F)CCCNC4)cc3)nc12 measurement_type=IC50 observed="100 to 500 nM"
mol_smiles=CNc1ccc(N2CCN([C@H]3C=C(c4cc5ncccc5c(=O)[nH]4)CC3)CC2)cc1 measurement_type=IC50 observed="5.1 to 50 nM"

As a next step, examine the compound that follows.
Recorded IC50 for O=c1[nH]c(C2=C[C@@H](N3CCN(c4ccc(F)cc4)CC3)CC2)nc2c1CCCC21CC1 on Poly [ADP-ribose] polymerase 1 (Homo sapiens, UniProt P09874) was 1 to 500 nM

###

// note: IC50 values for Poly [ADP-ribose] polymerase 1 (Homo sapiens) were reported in different studies

The following compounds have reported results that may help.
compound=CCN1CCP(=O)(c2cc(Cc3n[nH]c(=O)c4ccccc34)ccc2F)CC1 observed="< 0.1 µM"
compound=N#Cc1cccnc1N1CCP(=O)(c2cc(Cc3n[nH]c(=O)c4ccccc34)ccc2F)CC1 observed="< 0.1 µM"
compound=N#Cc1cnc(N2CCN([C@H]3C=C(c4cc5ncccc5c(=O)[nH]4)CC3)CC2)s1 observed="0.0005 to 0.005 µM"
compound=CCOC(=O)Nc1nc2cc(-c3n[nH]c(=O)c4ccc(Cl)cc34)ccc2[nH]1 observed="> 10 µM"
compound="NC(=O)c1cc(F)cc2[nH]c3c(-c4ccc(C5CCCNC5)cc4)cnn3c12 (stereo not shown)" observed="0.101 to 1 µM"
compound=CNC(=O)c1ccc(N2CCN([C@H]3C=C(c4nc5c(c(=O)[nH]4)CC4(CC5)CC4)CC3)CC2)cc1 observed="0.001 to 0.5 µM"

The reported IC50 of the compound O=c1[nH]c(C2=C[C@H](N3CCN(c4ccc(F)cc4)CC3)CC2)nc2c1CCCC21CC1 was 0.001 to 0.5 µM

Per the record, Cc1ccc(C(=O)C2CCN(CC(=O)NCc3nc4c(c(=O)[nH]3)COCC4)CC2)cc1 has IC50 of 8.3 µM

Lookup result for NC(=O)c1cc(F)cc2cn(-c3ccc(C4(F)CCCNC4)cc3)nc12 (stereo not shown) ; measured IC50: < 0.1 µM

The compound listed as O=c1[nH]c(C2=C[C@H](N3CCN(c4ncc(Cl)cc4F)CC3)CC2)nc2c1CC1(CC2)CC1 has a reported IC50 of 0.001 to 0.5 µM

Item: NC(=O)c1cc(F)cc2c1-n1ncc(C3CCN(CC4CC4)CC3)c1C2(F)F | IC50: 0.101 to 1 µM

Measured IC50 of CCN1CCCC(c2cnn3c2[nH]c2cc(F)cc(C(N)=O)c23)C1 (stereo not shown) : 0.001 to 0.1 µM

# IC50 of O=c1[nH]c(CCCN2CC3CCC(C2)N3c2ccc(F)cc2)nc2c1CC1(CC2)CC1 = 5 to 500 µM

Entry under test: CC1(C)CC(c2nc3c(c(=O)[nH]2)CC2(CC3)CC2)=C[C@H]1N1CCN(c2ccc(F)cc2)CC1 . Its IC50 was 5 to 500 µM

Memo: N#Cc1ccc(N2CCP(=O)(c3cc(Cc4n[nH]c(=O)c5ccccc45)ccc3F)CC2)cc1 , reported IC50: 1 to 10 µM

IC50 in this record for O=c1[nH]c(CCCN2CCN(c3ccccc3)CC2)nc2c1CC1(CC2)CC1 : 0.501 to 5 µM
